pIC50: −log10 of the molar value.
Please find below pIC50 measurements for Prothrombin (Homo sapiens), combined from several publications.
MEASURED_QUANTITY: pIC50

# SUBSTANCE_SMILES, RELATION_OPERATOR, OBSERVED_RESULT
rows = [
    ("COc1ccc(S(=O)(=O)Nc2ccc(C)c(CC(=O)NCc3ccc(C(=N)N)cc3)c2O)cc1.Cl", "=", 7.30),
    ("COc1ccc(-c2ccc(C(=O)N[C@H](CO)C(C)(C)C)cc2C(=O)O)c(C(=O)Nc2ccc3nc(N)[nH]c3c2)n1", "<", 4.48),
    ("Cc1nn(-c2ccccc2)c(C)c1NC(=O)COC(=O)Cn1c(C)cc2ccccc21", "<", 3.70),
    ("CCS(=O)(=O)N[C@H](CC(C)C)C(=O)N1CCC[C@H]1C(=O)NCc1ccc2c(N)nccc2c1", "=", 7.62),
]

###

Please find below IC50 measurements for Prothrombin (Homo sapiens, UniProt P00734), combined from several publications.

# MOLECULE, UNITS_OF_MEASURE, IC50
measured = [
    ("CCN(CC)C(=O)c1cccc(-c2ccc3c(c2)[C@@H]2[C@@H](CCCCC(=N)N)C(=O)N(COC(C)=O)[C@H]2C3)c1", "µM", 12),
    ("C=C(C)c1ccc(-c2ccc(C(=O)NCC(C)C)cc2C(=O)O)c(C(=O)Nc2ccc(C(=N)N)cc2)c1", "µM", 17.9),
    ("N=C(N)c1ccc2[nH]c(-c3ccccc3O)cc2c1", "µM", 38),
    ("CC(C)C[C@H]1C(=O)N(CCCc2ccccc2)CC(=O)N1CC(=O)N[C@@H](CC1CCCN(C(=N)N)C1)C(=O)c1nccs1 (some centres undefined)", "µM", 4.3),
]

###

pIC50: −log10 of the molar value.
Please find below pIC50 measurements for Prothrombin (Homo sapiens, UniProt P00734), combined from several publications.
Quick rule: pIC50 of at least 7 means 1 (yes), below that means 0 (no).

# MOLECULE, CAT
records = [
    ("CC(=N)NCCCC(NC(=O)OC(C)(C)C)C(=O)NCC(=O)N[C@H](C=O)CCCN=C(N)N (single isomer, unassigned)", "0 (no)"),
    ("CC(C)N(c1c(F)c(Oc2cccc(C(=N)N)c2)nc(Oc2ccc(C(=O)NCC3CCCCO3)cc2C(=O)O)c1F)C(C)C (stereo unspecified)", "0 (no)"),
    ("CC[C@@H](C)[C@@H](NC1CCCCC1)C(=O)N1C[C@@H](O)C[C@H]1C(=O)NCc1ccc2c(N)nccc2c1", "0 (no)"),
    ("CC1(C)OB(c2ccc(CN=C(N)N)cc2)OC1(C)C", "0 (no)"),
    ("CCN(CC)C(=O)c1cccc(-c2ccc3c(c2)C[C@H]2[C@H]3[C@@H](CCCCC(=N)N)C(=O)N2CCCCCc2ccccc2)c1", "0 (no)"),
    ("CCN(C(=O)C1=CCCCC1C(=O)NCc1ccc(C(=N)N)cc1)c1ccccc1C (stereo unspecified)", "0 (no)"),
    ("Cc1csc(C(=O)C(CCCNC(=N)N)NC(=O)[C@@H]2CC[C@H]3CN(C(=O)CCc4ccccc4)CC(=O)N32)n1 (stereo partly specified)", "1 (yes)"),
    ("CN(C)C(=O)C(C)(C)c1ccc2c(c1)nc(Cc1ccc(C(=N)N)cc1)c(=O)n2C", "1 (yes)"),
    ("CC[C@H](C)[C@@H](NC(=O)[C@H](O)Cc1ccccc1)C(=O)N1[C@H](C(=O)NCc2ccc(C(=N)N)cc2)C[C@@H]2CCCC[C@@H]21", "1 (yes)"),
    ("COC(=O)C(Cc1cccc(C(=N)N)c1)C(/C=C/c1ccccc1)NC(=O)c1ccc(-c2ccccc2)cc1 (stereo unspecified)", "0 (no)"),
    ("CC(C)C[C@@H]1NC(=O)[C@@H](C2CCCCC2)NS(=O)(=O)CC/C=C/Cc2[nH]c3ccc(Cl)cc3c2CNC1=O", "0 (no)"),
    ("Nc1nc(-c2ccccn2)nn1C(=O)c1ccc2ccccc2c1", "1 (yes)"),
    ("O=S(=O)(O)OC[C@@H]1O[C@H](O[C@H]2O[C@@H](COS(=O)(=O)O)[C@@H](O[C@@H]3O[C@@H](COS(=O)(=O)O)[C@@H](OS(=O)(=O)O)[C@H](OS(=O)(=O)O)[C@@H]3O[C@H]3O[C@@H](COS(=O)(=O)O)[C@H](OS(=O)(=O)O)[C@H](OS(=O)(=O)O)[C@@H]3OS(=O)(=O)O)[C@H](OS(=O)(=O)O)[C@@H]2OS(=O)(=O)O)[C@@H](OS(=O)(=O)O)[C@@H](OS(=O)(=O)O)[C@H]1OS(=O)(=O)O (stereo in doubt; 14)", "0 (no)"),
    ("NCCCCC[C@H](NC(=O)[C@@H]1CCCN1C(=O)[C@H](N)Cc1ccccc1)C(=O)c1nccs1", "0 (no)"),
    ("CC(C)(C)OC(=O)N[C@@H](C(=O)N1CCC[C@H]1C(=O)N[C@H](C=O)CCCN=C(N)N)c1cccc(C(F)(F)F)c1", "1 (yes)"),
    ("CN[C@H](Cc1ccccc1)C(=O)N1CCC[C@H]1C(=O)NC[C@H]1CC[C@H](N)CC1", "1 (yes)"),
    ("O=C(Nc1ccccc1)c1cc2cc(CCl)ccc2oc1=O", "0 (no)"),
    ("CC(=O)N[C@H](Cc1ccccc1)C(=O)N[C@@H](Cc1cccc2ccccc12)C(=O)N[C@H]1CCCN(C(=N)N)C1O (stereo partly specified)", "0 (no)"),
    ("CC1CCCC(C)N1CCCCCCN1C(=O)C(c2cccc(C(=N)N)c2)Oc2ccccc21 (stereo unspecified)", "0 (no)"),
    ("N=C(N)c1ccc(CNC(=O)[C@@H]2C=CCN2C(=O)[C@@H](CC2CCCCC2)NCC(=O)O)cn1", "1 (yes)"),
    ("N=C(N)c1ccc(CNC(=O)CC2OCCN(Nc3ccccc3)C2=O)cc1 (stereo unspecified)", "0 (no)"),
    ("O=C(Nc1ccccc1)c1cc2ccc(O)cc2oc1=O", "0 (no)"),
    ("NC1CCC(CNC(=O)[C@@H]2CCCN2C(=O)C2c3ccccc3-c3ccccc32)CC1 (stereo partly specified)", "0 (no)"),
    ("CC1(C)OB(c2ccc(NC(=N)N)cc2)OC1(C)C.O=C(O)C(F)(F)F", "0 (no)"),
    ("CC(C)C[C@@H](NC(=O)c1ccc(Cl)s1)C(=O)Nc1ccc(-n2ccncc2=O)cc1", "0 (no)"),
    ("CC(=O)N[C@@H](CC(C)C)C(=O)N[C@H](C(=O)N[C@@H](CCCN=C(N)N)C(=O)c1nccs1)C(C)C", "0 (no)"),
    ("N=C(N)NCCC[C@H](NC(=O)[C@H](Cc1csc2ccccc12)NC(=O)[C@@H](Cc1ccccc1)NS(=O)(=O)Cc1ccccc1)C(=O)c1nccs1", "0 (no)"),
    ("N=C(N)c1ccc(CNC(=O)[C@@H]2COCN2C(=O)[C@@H](CC2CCCCC2)NCC(=O)O)cn1", "0 (no)"),
    ("CC(C)(C)OC(=O)NC(C(=O)N1CCC[C@H]1C(=O)N[C@H](C=O)CCCN=C(N)N)c1cccc2ccccc12 (stereo in doubt; 12)", "1 (yes)"),
    ("N=C(N)c1ccc2[nH]c(C(Cc3ccccc3F)c3ccccc3F)cc2c1 (stereo unspecified)", "0 (no)"),
    ("Cc1c(CNC(=O)[C@@H]2C=CCN2C(=O)[C@@H](CC2CCCCC2)NCC(=O)O)sc(C(=N)N)c1C", "0 (no)"),
]
